System under test: F876L mutant Androgen Receptor (AR-F876L) (Homo sapiens (Human), UniProt P10275, F877L)
Sequence (P10275 whole entry F877L): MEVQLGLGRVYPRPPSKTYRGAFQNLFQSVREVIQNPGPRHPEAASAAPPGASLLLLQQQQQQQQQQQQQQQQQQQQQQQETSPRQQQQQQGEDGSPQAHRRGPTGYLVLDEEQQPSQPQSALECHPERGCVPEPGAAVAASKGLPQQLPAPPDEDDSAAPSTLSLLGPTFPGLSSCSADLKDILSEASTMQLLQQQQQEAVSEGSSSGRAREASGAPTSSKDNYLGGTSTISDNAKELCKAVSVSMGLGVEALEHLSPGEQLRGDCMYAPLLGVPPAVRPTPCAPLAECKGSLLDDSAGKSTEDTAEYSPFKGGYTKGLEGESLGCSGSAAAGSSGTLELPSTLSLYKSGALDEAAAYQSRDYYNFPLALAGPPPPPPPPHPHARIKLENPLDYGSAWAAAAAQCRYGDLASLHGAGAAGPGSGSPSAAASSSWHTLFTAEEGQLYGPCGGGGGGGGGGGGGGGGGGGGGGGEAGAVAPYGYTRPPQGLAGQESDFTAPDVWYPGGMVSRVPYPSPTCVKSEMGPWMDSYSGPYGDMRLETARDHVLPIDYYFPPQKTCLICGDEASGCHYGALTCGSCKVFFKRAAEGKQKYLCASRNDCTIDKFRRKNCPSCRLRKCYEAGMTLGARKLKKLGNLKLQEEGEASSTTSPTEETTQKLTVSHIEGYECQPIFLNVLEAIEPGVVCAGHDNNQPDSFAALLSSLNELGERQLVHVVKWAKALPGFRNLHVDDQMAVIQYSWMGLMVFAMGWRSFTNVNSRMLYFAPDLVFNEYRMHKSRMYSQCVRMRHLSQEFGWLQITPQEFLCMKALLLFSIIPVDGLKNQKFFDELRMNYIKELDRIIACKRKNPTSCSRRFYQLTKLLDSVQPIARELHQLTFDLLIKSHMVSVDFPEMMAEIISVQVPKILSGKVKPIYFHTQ
Procedure text: LNCaP-AR-F876L ANT reporter assay (antagonist mode)
Format: cell-based
Applied conditions: maximum % inhibition of R1881 control response over the tested concentration range; read-out: LNCaP-AR-F876L ANT MAX % Inh
Measured parameter: Emax (%)

1) CNC(=O)N1CCC(CNC(=O)c2ccc(N3C(=S)N(c4cnc(C#N)c(C(F)(F)F)c4)C(=O)C34CCC4)cc2)CC1 ... 97.6
2) N#Cc1ncc(N2C(=O)C3(CCC3)N(c3ccc4c(cnn4CC4CCNCC4)c3)C2=S)cc1C(F)(F)F ... 101
3) N#Cc1ncc(N2C(=O)C3(CCC3)N(c3ccc(OC4CCCNCC4)cc3)C2=S)cc1C(F)(F)F (stereo not drawn) ... 100
4) COC(=O)CN1CCC(Oc2ccc(N3C(=S)N(c4cnc(C#N)c(C(F)(F)F)c4)C(=O)C34CCC4)cc2)CC1 ... 98.2
5) COc1cc(N2C(=O)C3(CCC3)N(c3ccc(OC4CCN(C)CC4)nc3)C2=S)cnc1C#N ... 100
6) CC(=O)N1CC(F)(F)CC1COc1ccc(N2C(=S)N(c3cnc(C#N)c(C(F)(F)F)c3)C(=O)C23CCC3)cc1 (stereo not drawn) ... 98.3
7) CN1CC2CCC(C1)C2Oc1ccc(N2C(=S)N(c3cnc(C#N)c(C(F)(F)F)c3)C(=O)C23CCC3)cc1 (stereo not drawn) ... 101
8) N#Cc1ncc(N2C(=O)C3(CCC3)N(c3ccc4nn(CCO)cc4c3)C2=S)cc1C(F)(F)F ... 99.3
9) N#Cc1ncc(N2C(=O)C3(CCC3)N(c3ccc(OC4CCNCC4)cc3)C2=S)cc1Cl ... 101

====

System under test: wild-type Androgen Receptor (AR-wt) (Homo sapiens (Human))
Procedure text: LNCaP-AR-wt ANT reporter assay (antagonist mode)
Format: cell-based
Applied conditions: antagonist mode; maximum % inhibition of R1881 control response over tested concentration range; read-out: LNCaP-AR-wt ANT MAX % Inh
Measured parameter: Emax

1) N#Cc1ncc(N2C(=O)C3(CCC3)N(c3ccc(C4CNCCO4)cc3)C2=S)cc1C(F)(F)F (stereo not shown) ... 101%
2) CN1CC[C@H](CNC(=O)c2ccc(N3C(=S)N(c4cnc(C#N)c(C(F)(F)F)c4)C(=O)C34CCC4)cc2F)C1 ... 102%
3) N#Cc1ncc(N2C(=O)C3(CCC3)N(c3ccc(OC4CCNC5(CCC5)C4)nc3)C2=S)cc1C(F)(F)F (racemic) ... 104%
4) CN(C(=O)OC(C)(C)C)C1(COc2ccc(N3C(=S)N(c4cnc(C#N)c(C(F)(F)F)c4)C(=O)C34CCC4)cc2)COC1 ... 100%
5) Cc1cc(N2C(=O)C3(CCC3)N(c3ccc(CC4CCN(C)CC4)cc3)C2=S)cnc1C#N ... 101%
6) N#Cc1ncc(N2C(=O)C3(CCC3)N(c3ccc(CN4CCN(CCO)CC4)cc3)C2=S)cc1C(F)(F)F ... 102%
7) CN1CCC(CN(C)C(=O)c2ccc(N3C(=S)N(c4cnc(C#N)c(C(F)(F)F)c4)C(=O)C34CCC4)cc2)CC1 ... 99%
8) CN1CCC(Oc2ccc(N3C(=S)N(c4cnc(C#N)c(C(F)(F)F)c4)C(=O)C34CCC4)cn2)CC12CCC2 (racemic) ... 103%
9) COc1cc(N2C(=O)C3(CCC3)N(c3ccc4nn(C5CCNCC5)cc4c3)C2=S)cnc1C#N ... 100%
10) COc1cc(N2C(=O)C3(CCC3)N(c3ccc4c(cnn4C4CCN(C(C)=O)CC4)c3)C2=S)cnc1C#N ... 102%
11) N#Cc1ncc(N2C(=O)C3(CCC3)N(c3ccc(C(=O)NCC4CCNCC4)c(F)c3)C2=S)cc1C(F)(F)F ... 101%
12) CN1CCC(CNC(=O)c2ccc(N3C(=S)N(c4cnc(C#N)c(C(F)(F)F)c4)C(=O)C34CCC4)cc2F)CC1 ... 101%
13) N#Cc1ncc(N2C(=O)C3(CCC3)N(c3ccc(CN4CCNCC4)cc3)C2=S)cc1Cl ... 101%

====

System under test: wild-type Androgen Receptor (AR-wt) (Homo sapiens (Human), UniProt P10275)
Sequence (P10275 whole entry): as the sequence (P10275 whole entry F877L) above, with L877F counted along it
Procedure text: LNCaP-AR-wt AG reporter assay (agonist mode)
Type: cell-based
Applied conditions: agonist mode; maximum % stimulation over tested concentration range; read-out: LNCaP-AR-wt AG MAX % Stim
Measured parameter: Emax (%)

1) C[N@+]1([O-])CC[C@@H](Oc2ccc(N3C(=S)N(c4cnc(C#N)c(C(F)(F)F)c4)C(=O)C34CCC4)cc2)CC1 [Cpd 191] ... -0.2
2) N#Cc1ncc(N2C(=O)C3(CCC3)N(c3ccc(CN4CCOCC4)cc3)C2=S)cc1C(F)(F)F [Cpd 217] ... 0.4
3) N#Cc1ncc(N2C(=O)C3(CCC3)N(c3ccc(OC4CCNC5(CCC5)C4)nc3)C2=S)cc1C(F)(F)F (racemic) [Cpd 188] ... -0.2
4) CN1CCOC(c2ccc(N3C(=S)N(c4cnc(C#N)c(C(F)(F)F)c4)C(=O)C34CCC4)cc2)C1 (stereo not drawn) [Cpd 241] ... -0.1
5) N#Cc1ncc(N2C(=O)C3(CCC3)N(c3ccc(C4CNCCO4)cc3)C2=S)cc1C(F)(F)F (stereo not drawn) [Cpd 243] ... 0.2
6) N#Cc1ncc(N2C(=O)C3(CCC3)N(c3ccc4c(ccn4CCO)c3)C2=S)cc1C(F)(F)F [Cpd 248] ... 0

====

# maps each entry to its Emax
System under test: wild-type Androgen Receptor (AR-wt) (Homo sapiens (Human), UniProt P10275)
Procedure text: LNCaP-AR-wt AG reporter assay (agonist mode)
Assay type: cell-based
Applied conditions: agonist mode; maximum % stimulation over tested concentration range; read-out: LNCaP-AR-wt AG MAX % Stim
Measured parameter: Emax (%)

1. Cc1cc(N2C(=O)C3(CCC3)N(c3ccc(CC4CCN(C)CC4)cc3)C2=S)cnc1C#N ... 0
2. CN(C)C1(COc2ccc(N3C(=S)N(c4cnc(C#N)c(C(F)(F)F)c4)C(=O)C34CCC4)cc2)COC1 ... 0
3. COc1cc(N2C(=O)C3(CCC3)N(c3ccc4nn(C5CCNCC5)cc4c3)C2=S)cnc1C#N ... 0.3
4. COc1cc(N2C(=O)C3(CCC3)N(c3ccc4c(cnn4C4CCNCC4)c3)C2=S)cnc1C#N ... 0.5
5. N#Cc1ncc(N2C(=O)C3(CCC3)N(c3ccc(CC4CCNCC4)cc3)C2=S)cc1C(F)(F)F ... 0.1
6. CN1CCC(Oc2ccc(N3C(=S)N(c4cnc(C#N)c(C(F)(F)F)c4)C(=O)C34CCC4)cn2)CC12CCC2 (racemic) ... -0.3
7. N#Cc1ncc(N2C(=O)C3(CCC3)N(c3ccc(C(=O)NC[C@@H]4CCCNC4)cc3)C2=S)cc1C(F)(F)F ... 0.1
8. CC(=O)N1CCC(n2cc3ccc(N4C(=S)N(c5cnc(C#N)c(C(F)(F)F)c5)C(=O)C45CCC5)cc3n2)CC1 ... 0.1
9. Cc1cc(N2C(=O)C3(CCC3)N(c3cnc(OC4CCNCC4)nc3)C2=S)cnc1C#N ... 0.1
10. C[N@+]1([O-])CC[C@H](Oc2ccc(N3C(=S)N(c4cnc(C#N)c(C(F)(F)F)c4)C(=O)C34CCC4)cc2)CC1 ... -0.1
11. N#Cc1ncc(N2C(=O)C3(CCC3)N(c3ccc4c(ccn4C4CCNCC4)c3)C2=S)cc1C(F)(F)F ... 0
12. CN1CCC12CC(Oc1ccc(N3C(=S)N(c4cnc(C#N)c(C(F)(F)F)c4)C(=O)C34CCC4)cn1)C2 (stereo not drawn) ... 0.1
13. CN1CCC(n2cc3ccc(N4C(=S)N(c5cnc(C#N)c(C(F)(F)F)c5)C(=O)C45CCC5)cc3n2)CC1 ... -0.2
14. CN1CCC[C@H](CNC(=O)c2ccc(N3C(=S)N(c4cnc(C#N)c(C(F)(F)F)c4)C(=O)C34CCC4)cc2F)C1 ... -0.1
15. CN1CC(CNC(=O)c2ccc(N3C(=S)N(c4cnc(C#N)c(C(F)(F)F)c4)C(=O)C34CCC4)cc2)C1 ... 0.1
16. COc1cc(N2C(=O)C3(CCC3)N(c3ccc(CN4CCNCC4)cc3)C2=S)cnc1C#N ... 0
17. N#Cc1ncc(N2C(=O)C3(CCC3)N(c3ccc(CN4CCNC(=O)C4)cc3)C2=S)cc1C(F)(F)F ... -0.2
18. N#Cc1ncc(N2C(=O)C3(CCC3)N(c3cnc(OC4CCN(CCO)CC4)nc3)C2=S)cc1C(F)(F)F ... -0.1
19. N#Cc1ncc(N2C(=O)C3(CCC3)N(c3ccc(O[C@@H]4CCN[C@H](CO)C4)cc3)C2=S)cc1C(F)(F)F (racemic) ... 0.5
20. N#Cc1ncc(N2C(=O)C3(CCC3)N(c3ccc(CC4CCC(N)CC4)cc3)C2=S)cc1C(F)(F)F (stereo not drawn) ... -0.2
21. N#Cc1ncc(N2C(=O)C3(CCC3)N(c3ccc(CN4CCNCC4)cc3)C2=S)cc1Cl ... 0
22. COc1cc(N2C(=O)C3(CCC3)N(c3ccc(CC4CCNCC4)cc3)C2=S)cnc1C#N ... 0.6
23. CN1CCC(Oc2ccc(N3C(=S)N(c4cnc(C#N)c(C(F)(F)F)c4)C(=O)C34CCC4)cc2)CC1=O (racemic) ... 0
24. CN1CCC(C)(Oc2ccc(N3C(=S)N(c4cnc(C#N)c(C(F)(F)F)c4)C(=O)C34CCC4)cn2)CC1 ... 0.1

The origin of these recorded values is patent US10981926B2.
